B1: REST corepressor 3, residues 87 to 134; numbered along this chain, Q9P2K3 (parent)
chain: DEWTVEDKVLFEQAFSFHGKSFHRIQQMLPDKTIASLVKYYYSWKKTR

Variants of: B1
protocol-text: abundance fitness (aPCA) (normalised: wild type 0, dead -1); higher = more abundant; growth selection in yeast, the domain comes from the species named
particulars: Homo sapiens
readout: abundance fitness
Please reply with the value in numeric form only.

Guide cases for abundance fitness, answers given:
>>> recorded_measurement("E6F")
-0.542
>>> recorded_measurement("A35H")
-0.214
>>> recorded_measurement("M28E")
-0.616
>>> recorded_measurement("Y40E")
-0.318
>>> recorded_measurement("Q26W")
-0.82
>>> recorded_measurement("Y42F")
-0.555

Fill blank: measured abundance fitness of the variant S16Q is ____.
-0.084

For the variant shown here, K39C , give the reported abundance fitness.
-0.546

Give the measured abundance fitness of V38M .
-0.115

abundance fitness for S36P ?
-0.852

Given D31Y , state its recorded abundance fitness.
-0.027

# get_value(readout='abundance fitness', item= K45E )
-0.546

Could you tell me which abundance fitness is on file for S16P ?
-0.579

Given the entry I34D , report its measured abundance fitness.
-0.437

// abundance fitness lookup, key: S36A
-0.504

# input variant: P30F ; wanted: its abundance fitness
-0.182

Data request, read-out abundance fitness, for E6R
-0.273

Returns the measured abundance fitness for the input variant. Input: T4S
-0.198

Quick one: abundance fitness for F15S ?
-0.632

Returns the measured abundance fitness for the input variant. Input: Q26C
-0.172

Suppose we examine the variant T4D ; what abundance fitness value has been reported?
-0.53

Please give the measured abundance fitness for this variant: Q27K
-0.419
